Values from BigSolDB 2.1

measurement setup: in gamma-butyrolactone, 313.15 K
reported endpoint: solubility (mole fraction)

Consider CCC(CO)(CO)C(=O)O . Its measured solubility (mole fraction) is 0.136

* * *

measurement setup: in 1,4-dioxane, 328.15 K
reported endpoint: solubility (mole fraction)

Consider CCC(CO)(CO)C(=O)O . Its measured solubility (mole fraction) is 0.324

* * *

measurement setup: in gamma-butyrolactone, 323.15 K
reported endpoint: solubility (mole fraction)
The reply should be a number, written without any unit.

Consider CCC(CO)(CO)C(=O)O . Its measured solubility (mole fraction) is 0.173

* * *

measurement setup: in gamma-butyrolactone, 333.15 K
reported endpoint: solubility (mole fraction)

Consider CCC(CO)(CO)C(=O)O . Its measured solubility (mole fraction) is 0.232
